From: patent US20230287598A1

# TEST TARGET: CXCR1 (UniProt P25024)
# Sequence (P25024 whole entry): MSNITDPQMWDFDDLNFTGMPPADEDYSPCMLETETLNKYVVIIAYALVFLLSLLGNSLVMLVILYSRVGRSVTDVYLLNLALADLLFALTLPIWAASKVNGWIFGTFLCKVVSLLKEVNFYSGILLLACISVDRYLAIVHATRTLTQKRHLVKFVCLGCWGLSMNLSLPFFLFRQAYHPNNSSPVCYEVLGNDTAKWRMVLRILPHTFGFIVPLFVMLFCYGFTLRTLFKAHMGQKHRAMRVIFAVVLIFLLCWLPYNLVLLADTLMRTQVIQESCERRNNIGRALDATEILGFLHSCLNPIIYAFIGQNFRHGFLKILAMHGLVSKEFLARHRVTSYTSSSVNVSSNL
# ASSAY METHOD TEXT: flow cytometry, CXCR1-U2OS / parental U2OS
// CXCR1/Parental Ratio lookup, one value per entry
EXPERIMENTAL ENDPOINT: CXCR1/Parental Ratio

VH4-34+CDR3-IL8_CDR1 Cow / V1-47 IgG (antibody, part only; not given: V1-47 light chain, part only) VH: QVQLQQWGAGLLKPSETLSLTCTASGFSLSDKAVGWIRQPPGKGLEWIGEINHSGSTNYNPSLKSRVTISVDTSKNQFSLKLSSVTAADTAVYYCTSVHQETKKYQSPRSAKELRCQCIKTYSKPFHPKFIKELRVIESGPHCANTEIIVKLSDGRELCLDPKENWVQRVVEKFLKRAENSGSGSYTYNYEWHVDVWGQGLLVTVSSAS :: 5.1
VH4-34+CDR3-IL8_CDR2 E50S / V1-51 IgG (antibody, part only; not given: V1-51 light chain, part only) VH: QVQLQQWGAGLLKPSETLSLTCAVYGGSFSGYYWSWIRQPPGKGLEWIGSINHSGSTNYNPSLKSRVTISVDTSKNQFSLKLSSVTAADTAVYYCTSVHQETKKYQSPRSAKELRCQCIKTYSKPFHPKFIKELRVIESGPHCANTEIIVKLSDGRELCLDPKENWVQRVVEKFLKRAENSGSGSYTYNYEWHVDVWGQGLLVTVSSAS :: 1.8
VH4-34+CDR3-IL8_CDR1 Cow_CDR2 E50S / V1-51 IgG (antibody, part only; not given: V1-51 light chain, part only) VH: QVQLQQWGAGLLKPSETLSLTCTASGFSLSDKAVGWIRQPPGKGLEWIGSINHSGSTNYNPSLKSRVTISVDTSKNQFSLKLSSVTAADTAVYYCTSVHQETKKYQSPRSAKELRCQCIKTYSKPFHPKFIKELRVIESGPHCANTEIIVKLSDGRELCLDPKENWVQRVVEKFLKRAENSGSGSYTYNYEWHVDVWGQGLLVTVSSAS :: 3.1
